Values from patent US11135246B2

Experimental target: HLA-B*44:02 (Homo sapiens, UniProt P01889, A223V/A65T/A93T/A95T/D201E/D98Y/E176V/E187L/E204Q/E69K/G107R/H137Y/K202T/L105A/L119I/N104T/N87E/Q56L/Q94N/R106L/R155S/R180D/S101N/S121R/S35A/S48T/T118I/V36M/W191S/Y140D/Y91S)
Protocol notes: MHC binding assay, UV-ligand exchange with β2m ELISA, HLA-B*44:02
Measurement conditions: binding to HLA-B*44:02, UV-ligand exchange
Measure name: Peptide exchange (MHC class I binding score, peptide exchange yield)

Find the recorded Peptide exchange (MHC class I binding score, peptide exchange yield) belonging to 162 (DEAQARAAF; listed as Homo sapiens) [compound 162] and report it.
“++” (>20% = ++)

Find the recorded Peptide exchange (MHC class I binding score, peptide exchange yield) belonging to 139 (RENQVLGSGW; listed as Homo sapiens) [compound 139] and report it.
“+++” (>50 = +++)

Find the recorded Peptide exchange (MHC class I binding score, peptide exchange yield) belonging to 258 (EELFRDGVNW; listed as Homo sapiens) [compound 258] and report it.
“+++” (>50 = +++)

Find the recorded Peptide exchange (MHC class I binding score, peptide exchange yield) belonging to 155 (NEFPVIVRL; listed as Homo sapiens) [compound 155] and report it.
“+++” (>50 = +++)

Find the recorded Peptide exchange (MHC class I binding score, peptide exchange yield) belonging to 266 (VDASIFKAW; listed as Homo sapiens) [compound 266] and report it.
“++” (>20% = ++)

Continuing:
Find the recorded Peptide exchange (MHC class I binding score, peptide exchange yield) belonging to 132 (GELPAVRDL; listed as Homo sapiens) [compound 132] and report it.
“++” (>20% = ++)

* * *

Experimental target: HLA-B*44:02 (Homo sapiens, UniProt P01889, A223V/A65T/A93T/A95T/D201E/D98Y/E176V/E187L/E204Q/E69K/G107R/H137Y/K202T/L105A/L119I/N104T/N87E/Q56L/Q94N/R106L/R155S/R180D/S101N/S121R/S35A/S48T/T118I/V36M/W191S/Y140D/Y91S)
Protocol notes: MHC binding assay, UV-ligand exchange with β2m ELISA, HLA-B*44:02
Measurement conditions: binding to HLA-B*44:02, UV-ligand exchange
Excerpt: Candidate peptides for T cell based therapies according to the present invention were further tested for their MHC binding capacity (affinity). The individual peptide-MHC complexes were produced by UV-ligand exchange, where a UV-sensitive peptide is cleaved upon UV-irradiation, and exchanged with the peptide of interest as analyzed. Only peptide candidates that can effectively bind and stabilize the peptide-receptive MHC molecules prevent dissociation of the MHC complexes. […]
Measure name: Peptide exchange (MHC class I binding score, peptide exchange yield)

Find the recorded Peptide exchange (MHC class I binding score, peptide exchange yield) belonging to 262 (QENQAETHAW; listed as Homo sapiens) [compound 262] and report it.
“+++” (>50 = +++)

Find the recorded Peptide exchange (MHC class I binding score, peptide exchange yield) belonging to 268 (NEDKGTKAW; listed as Homo sapiens) [compound 268] and report it.
“++” (>20% = ++)

Find the recorded Peptide exchange (MHC class I binding score, peptide exchange yield) belonging to 125 (SESTFDRTF; listed as Homo sapiens) [compound 125] and report it.
“+++” (>50 = +++)

Find the recorded Peptide exchange (MHC class I binding score, peptide exchange yield) belonging to 170 (SENEQRRMF; listed as Homo sapiens) [compound 170] and report it.
“+++” (>50 = +++)

Find the recorded Peptide exchange (MHC class I binding score, peptide exchange yield) belonging to 261 (NEIEHIPVW; listed as Homo sapiens) [compound 261] and report it.
“+++” (>50 = +++)

Find the recorded Peptide exchange (MHC class I binding score, peptide exchange yield) belonging to 130 (EEEHGKGREY; listed as Homo sapiens) [compound 130] and report it.
“++” (>20% = ++)

Continuing:
Find the recorded Peptide exchange (MHC class I binding score, peptide exchange yield) belonging to 169 (EENGEVKEL; listed as Homo sapiens) [compound 169] and report it.
“++” (>20% = ++)

Find the recorded Peptide exchange (MHC class I binding score, peptide exchange yield) belonging to 144 (TEGKRYFTW; listed as Homo sapiens) [compound 144] and report it.
“+++” (>50 = +++)

Find the recorded Peptide exchange (MHC class I binding score, peptide exchange yield) belonging to 158 (GENEDNRIGL; listed as Homo sapiens) [compound 158] and report it.
“++” (>20% = ++)
